Read-out: sulfotransferase 2A1 (SULT2A1), SULT2A1 (gene 6822)
experimentSummary: LTEA_HepaRG_SULT2A1: Life Technologies and Expression Analysis (LTEA) Assay for sulfotransferase 2A1 (SULT2A1) using HepaRG (AID 2283531)
experimentalContext: mRNA level, 48 h; actives raise or lower the signal
Active and inactive are the calls of the source. How the source made its calls: active means hit-call score of the fitted dose curve at least 0.9, where 1 is the maximum; inactive means score below 0.9.
Thanks in advance; please answer with one of these: Y (active), N (inactive)

Query: Per the records of this test, what outcome belongs to "OCC(CO)(CBr)CBr" ?
Result: N

Query: Per the records of this test, what outcome belongs to "CN(Cc1cnc2nc(N)nc(N)c2n1)c1ccc(C(=O)N[C@@H](CCC(=O)O)C(=O)O)cc1" ?
Result: Y

Query: Per the records of this test, what outcome belongs to "CCCCCCCCCCCCOS(=O)(=O)O" ?
Result: Y

Query: Per the records of this test, what outcome belongs to "CS(=O)(=O)c1ccc([C@@H](CC2CCCC2)C(=O)Nc2cnccn2)cc1Cl" ?
Result: Y

Query: Per the records of this test, what outcome belongs to "O=C(c1ccccc1)c1ccccc1" ?
Result: N

Query: Per the records of this test, what outcome belongs to "O=C1NS(=O)(=O)c2ccccc21" ?
Result: N

Query: Per the records of this test, what outcome belongs to CCCCC(CC)C(=O)O (stereo unspecified) ?
Result: N

====

Read-out: Forkhead box O1 (FOXO1), FOXO1 (gene 2308)
experimentSummary: LTEA_HepaRG_FOXO1: Life Technologies and Expression Analysis (LTEA) Assay for Forkhead box O1 (FOXO1) using HepaRG (AID 2283456)
experimentalContext: mRNA level, 48 h; actives raise or lower the signal
Calls of active or inactive are those of the source. The calls were made as follows: active = hit-call score of the fitted dose curve at least 0.9, where 1 is the maximum; inactive = score below 0.9.
Thanks in advance; please answer with one of these: active, inactive

CC(=O)Nc1ccc(O)cc1 :: inactive

Next up:
Query: Per the records of this test, what outcome belongs to "CN(Cc1cnc2nc(N)nc(N)c2n1)c1ccc(C(=O)N[C@@H](CCC(=O)O)C(=O)O)cc1" ?
Result: inactive

====

experimentSummary: CCTE_Shafer_MEA_acute_burst_number: CCTE's Neural Acute Assay for Single-Electrode Bursts, Shafer Lab (AID 2284013)
Protocol: CCTE_Shafer_MEA_acute assay is conducted using Axion Biosystems 48 well microelectrode array (MEA) plates and Maestro recording system. Each well of the MEA plate contains a grid of 16 microelectrodes embedded in the culture surface. Electrically active cells, such as neurons, can be cultured over the electrodes, and electrical activity in these cells can be recorded extracellularly. […]
The source made the active and inactive calls. How the source made its calls: active means hit-call score of the fitted dose curve at least 0.9, where 1 is the maximum; inactive means score below 0.9.
Thanks in advance; please answer with one of these: T = active, F = inactive

Before answering, review these 4 worked examples.
CN(C)CCOC(c1ccccc1)c1ccccc1 :: T
O=C1NS(=O)(=O)c2ccccc21 :: T
CC(=O)Nc1ccc(O)cc1 :: F
OCC(CO)(CBr)CBr :: F

Query: Per the records of this test, what outcome belongs to "Oc1ccc(Cc2ccccc2O)cc1" ?
Result: T

Query: Per the records of this test, what outcome belongs to "CCCCCCCCCCCC" ?
Result: F

Query: Per the records of this test, what outcome belongs to "O=C(CCCN1CCC(O)(c2ccc(Cl)cc2)CC1)c1ccc(F)cc1" ?
Result: F

Query: Per the records of this test, what outcome belongs to CCC(C)c1ccccc1O (configuration not stated) ?
Result: T

Query: Per the records of this test, what outcome belongs to "Oc1c(Cl)cc(Cl)cc1Sc1cc(Cl)cc(Cl)c1O" ?
Result: F

Query: Per the records of this test, what outcome belongs to "CCCCc1oc2ccccc2c1C(=O)c1cc(I)c(OCCN(CC)CC)c(I)c1" ?
Result: F

Query: Per the records of this test, what outcome belongs to "N=C(N)c1ccc(OCCCCCOc2ccc(C(=N)N)cc2)cc1" ?
Result: F

Query: Per the records of this test, what outcome belongs to "CCCCC=O" ?
Result: F

====

experimentSummary: CCTE_Shafer_MEA_dev_network_spike_number: CCTE's Neural Network Formation Assay for Number of Network Spikes, Shafer Lab (AID 2284048);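 further: synchronized bursts across electrodes counted on days 5 7 9 12 and integrated as AUC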
Activity calls are given as the source filed them. How the source made its calls: active means hit-call score of the fitted dose curve at least 0.9, where 1 is the maximum; inactive means score below 0.9.
Thanks in advance; please answer with one of these: T (active), F (inactive)

Before answering, review these 8 worked examples.
CC(=O)Nc1ccc(O)cc1 :: F
O=P(O)(O)CCC(F)(F)C(F)(F)C(F)(F)C(F)(F)C(F)(F)C(F)(F)F :: F
FC(F)=C(F)C(F)(F)C(F)(F)C(F)(F)C(F)F :: F
FCOC(C(F)(F)F)C(F)(F)F :: F
CN(Cc1cnc2nc(N)nc(N)c2n1)c1ccc(C(=O)N[C@@H](CCC(=O)O)C(=O)O)cc1 :: T
O=C(O)C(F)(F)OC(F)(F)C(F)(F)OC(F)(F)C(F)(F)OC(F)(F)C(F)(F)C(F)(F)C(F)(F)F :: F
OCC(F)(F)C(F)(F)C(F)(F)C(F)(F)C(F)(F)C(F)(F)C(F)(F)C(F)(F)C(F)(F)C(F)(F)C(F)(F)F :: F
C=CC(F)(F)C(F)(F)C(F)(F)C(F)(F)F :: F

Query: Per the records of this test, what outcome belongs to "O=C(CC(=O)C(F)(F)C(F)(F)C(F)(F)F)c1cccs1" ?
Result: F

Query: Per the records of this test, what outcome belongs to "NC(C(F)(F)F)C(F)(F)F" ?
Result: F

Query: Per the records of this test, what outcome belongs to "O=C(CCCN1CCC(O)(c2ccc(Cl)cc2)CC1)c1ccc(F)cc1" ?
Result: T

====

Read-out: E-selectin (Homo sapiens)
experimentSummary: BSK_3C_Eselectin: BioMAP Diversity Plus: 3C Assay for Eselectin Biomarker Activity (AID 2283015)
experimentalContext: primary human endothelial cells (HUVEC); actives raise or lower the signal
Active and inactive are the calls of the source. Rule for the calls: active = hit-call score of the fitted dose curve at least 0.9, where 1 is the maximum; inactive = score below 0.9.
measuredMetric: AC50

N=C(N)c1ccc(OCCCCCOc2ccc(C(=N)N)cc2)cc1 :: 932 nM (active)
Oc1cc2ccccc2cc1O :: inactive
CCCCCCCCCCCCCCC :: inactive
OCC(CO)(CBr)CBr :: inactive
C=COC(=O)C(C)(C)CCCCCC :: 32700 nM (active)
O=P(O)(O)CCC(F)(F)C(F)(F)C(F)(F)C(F)(F)C(F)(F)C(F)(F)C(F)(F)C(F)(F)F :: inactive
O=C(c1ccccc1)c1ccccc1 :: inactive

Turning now to a further record.
Query: Return reported AC50. Input molecule: "CCCCCCCCCCCCCCCCCC[N+](C)(C)Cc1ccccc1"
Result: 2680 nM (active)

====

experimentSummary: ATG_GATA_CIS: Attagene CIS-FACTORIAL HepG2 Assay for human GATA Binding Protein (AID 2282944)
experimentalContext: HepG2 GATA cis-element reporter, Attagene multiplex mRNA; actives raise or lower the signal
Active and inactive are the calls of the source. The calls were made as follows: active = hit-call score of the fitted dose curve at least 0.9, where 1 is the maximum; inactive = score below 0.9.
Thanks in advance; please answer with one of these: y (active), n (inactive)

Before answering, review these 4 worked examples.
CCCCCCCCCCCC(=O)NCCCN(C)C :: y
CCOC(=O)c1nc(C(Cl)(Cl)Cl)n(-c2ccc(Cl)cc2Cl)n1 :: n
CCCCCCCCC(C)=O :: n
CC(C)(C)c1ccc(CCC=O)cc1 :: n

Query: Per the records of this test, what outcome belongs to "CC=O" ?
Result: n

Query: Per the records of this test, what outcome belongs to CCO[Si](CCC1CCC2OC2C1)(OCC)OCC (stereo unspecified) ?
Result: n

====

Read-out: Interferon-gamma inducible Protein 10 (IP10), CXCL10 (gene 3627)
experimentSummary: BSK_hDFCGF_IP10: BioMAP Diversity Plus: hDFCGF Assay for Interferon-gamma inducible Protein 10 (IP10) Biomarker Activity (AID 2283053)
experimentalContext: primary human foreskin fibroblasts; actives raise or lower the signal
Calls of active or inactive are those of the source. The calls were made as follows: active = hit-call score of the fitted dose curve at least 0.9, where 1 is the maximum; inactive = score below 0.9.
Thanks in advance; please answer with one of these: active, inactive

O=P(O)(O)CCC(F)(F)C(F)(F)C(F)(F)C(F)(F)C(F)(F)C(F)(F)C(F)(F)C(F)(F)F :: inactive
O=C(CC(=O)C(F)(F)C(F)(F)C(F)(F)F)c1cccs1 :: inactive
O=C1NS(=O)(=O)c2ccccc21 :: inactive
O=C(c1ccccc1)c1ccccc1 :: inactive
O=C(NO)c1ccccc1 :: inactive
CCCCCc1ccc(O)cc1 :: active
O=P(O)(O)CCC(F)(F)C(F)(F)C(F)(F)C(F)(F)C(F)(F)C(F)(F)F :: inactive
CCOC(=O)CN[C@@H](C(=O)N1CC[C@H]1C(=O)NCc1ccc(/C(N)=N/O)cc1)C1CCCCC1 :: inactive

Next up:
Query: Per the records of this test, what outcome belongs to "C=CC(=C)CC/C=C(\C)CCC=C(C)C" ?
Result: inactive

====

systemTested: Hepatocyte nuclear factor 4-alpha (Homo sapiens)
experimentSummary: ATG_HNF4a_TRANS: Attagene TRANS-FACTORIAL HepG2 Assay for human Hepatocyte Nuclear Factor 4 alpha (HNF4a) (AID 2282982)
experimentalContext: HepG2 HNF4a transactivation reporter, mRNA readout
Results filed as inconclusive are left out. Activity calls are given as the source filed them. The calls were made as follows: active = hit-call score of the fitted dose curve at least 0.9, where 1 is the maximum; inconclusive = response in the unintended direction; inactive = score below 0.9.
Thanks in advance; please answer with one of these: active, inactive

Before answering, review these 5 worked examples.
CCCCCCCCCCCCOC(=O)c1cc(O)c(O)c(O)c1 :: inactive
CC(C)(c1ccc(Oc2ccc(N)cc2)cc1)c1ccc(Oc2ccc(N)cc2)cc1 :: inactive
c1cnc2c(c1)ccc1cccnc12 :: inactive
COCN(COC)c1nc(N(COC)COC)nc(N(COC)COC)n1 :: inactive
C=COC(=O)C(C)(C)CCCCCC :: inactive

Next up:
Query: Per the records of this test, what outcome belongs to "CCC(=O)C=Cc1ccc(OC)cc1" ?
Result: inactive
